I'd be grateful if you could share measured melting temperature for these entries.
Test system: HeLa Kyoto;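 note: HeLa Kyoto cells synchronized by double thymidine or nocodazole block, proteins quantified by TMT10plex mass spectrometry, three independent biological replicates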
Assay info: melting temperature (median over replicates), in situ; higher = more thermally stable
Assay context: cell cycle stage: G1/S
Reply with just the number (in °C).

Please report the recorded melting temperature for MSLNPPIFLKRSEENSSKFVETKQSQTTSIASEDPLQNLCLASQEVLQKAQQSGRSKCLKCGGSRMFYCYTCYVPVENVPIEQIPLVKLPLKIDIIKHPNETDGKSTAIHAKLLAPEFVNIYTYPCIPEYEEKDHEVALIFPGPQSISIKDISFHLQKRIQNNVRGKNDDPDKPSFKRKRTEEQEFCDLNDSKCKGTTLKKIIFIDSTWNQTNKIFTDERLQGLLQVELKTRKTCFWRHQKGKPDTFLSTIEAIYYFLVDYHTDILKEKYRGQYDNLLFFYSFMYQLIKNAKCSGDKETGKLTH [DTWD1] . 50.9

Please report the recorded melting temperature for MAAYSYRPGPGAGPGPAAGAALPDQSFLWNVFQRVDKDRSGVISDTELQQALSNGTWTPFNPVTVRSIISMFDRENKAGVNFSEFTGVWKYITDWQNVFRTYDRDNSGMIDKNELKQALSGFGYRLSDQFHDILIRKFDRQGRGQIAFDDFIQGCIVLQRLTDIFRRYDTDQDGWIQVSYEQYLSMVFSIV [PDCD6] . 49.3

Please report the recorded melting temperature for MNGRADFREPNAEVPRPIPHIGPDYIPTEEERRVFAECNDESFWFRSVPLAATSMLITQGLISKGILSSHPKYGSIPKLILACIMGYFAGKLSYVKTCQEKFKKLENSPLGEALRSGQARRSSPPGHYYQKSKYDSSVSGQSSFVTSPAADNIEMLPHYEPIPFSSSMNESAPTGITDHIVQGPDPNLEESPKRKNITYEELRNKNRESYEVSLTQKTDPSVRPMHERVPKKEVKVNKYGDTWDE [OCIAD1] . 55.9

Please report the recorded melting temperature for MDFLMSGLAACGACVFTNPLEVVKTRMQLQGELQAPGTYQRHYRNVFHAFITIGKVDGLAALQKGLAPALLYQFLMNGIRLGTYGLAEAGGYLHTAEGTHSPARSAAAGAMAGVMGAYLGSPIYMVKTHLQAQAASEIAVGHQYKHQGMFQALTEIGQKHGLVGLWRGALGGLPRVIVGSSTQLCTFSSTKDLLSQWEIFPPQSWKLALVAAMMSGIAVVLAMAPFDVACTRLYNQPTDAQGKGLMYRGILDALLQTARTEGIFGMYKGIGASYFRLGPHTILSLFFWDQLRSLYYTDTK [SLC25A35] . 56.2

Please report the recorded melting temperature for TRIOBP . 49.1

Please report the recorded melting temperature for MRPLTEEETRVMFEKIAKYIGENLQLLVDRPDGTYCFRLHNDRVYYVSEKIMKLAANISGDKLVSLGTCFGKFTKTHKFRLHVTALDYLAPYAKYKVWIKPGAEQSFLYGNHVLKSGLGRITENTSQYQGVVVYSMADIPLGFGVAAKSTQDCRKVDPMAIVVFHQADIGEYVRHEETLT [NIP7] . 55.5

Please report the recorded melting temperature for MGDHAWSFLKDFLAGGVAAAVSKTAVAPIERVKLLLQVQHASKQISAEKQYKGIIDCVVRIPKEQGFLSFWRGNLANVIRYFPTQALNFAFKDKYKQLFLGGVDRHKQFWRYFAGNLASGGAAGATSLCFVYPLDFARTRLAADVGKGAAQREFHGLGDCIIKIFKSDGLRGLYQGFNVSVQGIIIYRAAYFGVYDTAKGMLPDPKNVHIFVSWMIAQSVTAVAGLVSYPFDTVRRRMMMQSGRKGADIMYTGTVDCWRKIAKDEGAKAFFKGAWSNVLRGMGGAFVLVLYDEIKKYV [SLC25A4] . 58.1

Please report the recorded melting temperature for MPGGLLLGDVAPNFEANTTVGRIRFHDFLGDSWGILFSHPRDFTPVCTTELGRAAKLAPEFAKRNVKLIALSIDSVEDHLAWSKDINAYNCEEPTEKLPFPIIDDRNRELAILLGMLDPAEKDEKGMPVTARVVFVFGPDKKLKLSILYPATTGRNFDEILRVVISLQLTAEKRVATPVDWKDGDSVMVLPTIPEEEAKKLFPKGVFTKELPSGKKYLRYTPQP [PRDX6] . 53.9

Please report the recorded melting temperature for MADKPDMGEIASFDKAKLKKTETQEKNTLPTKETIEQEKRSEIS [TMSB10] . 53.8

Please report the recorded melting temperature for MAASRPLSRFWEWGKNIVCVGRNYADHVREMRSAVLSEPVLFLKPSTAYAPEGSPILMPAYTRNLHHELELGVVMGKRCRAVPEAAAMDYVGGYALCLDMTARDVQDECKKKGLPWTLAKSFTASCPVSAFVPKEKIPDPHKLKLWLKVNGELRQEGETSSMIFSIPYIISYVSKIITLEEGDIILTGTPKGVGPVKENDEIEAGIHGLVSMTFKVEKPEY [FAHD1] . 53.5

Please report the recorded melting temperature for MRESALERGPVPEAPAGGPVHAVTVVTLLEKLASMLETLRERQGGLARRQGGLAGSVRRIQSGLGALSRSHDTTSNTLAQLLAKAERVSSHANAAQERAVRRAAQVQRLEANHGLLVARGKLHVLLFKEEGEVPASAFQKAPEPLGPADQSELGPEQLEAEVGESSDEEPVESRAQRLRRTGLQKVQSLRRALSGRKGPAAPPPTPVKPPRLGPGRSAEAQPEAQPALEPTLEPEPPQDTEEDPGRPGAAEEALLQMESVA [PRKCDBP] . 53.9

Please report the recorded melting temperature for MSRPRKRLAGTSGSDKGLSGKRTKTENSGEALAKVEDSNPQKTSATKNCLKNLSSHWLMKSEPESRLEKGVDVKFSIEDLKAQPKQTTCWDGVRNYQARNFLRAMKLGEEAFFYHSNCKEPGIAGLMKIVKEAYPDHTQFEKNNPHYDPSSKEDNPKWSMVDVQFVRMMKRFIPLAELKSYHQAHKATGGPLKNMVLFTRQRLSIQPLTQEEFDFVLSLEEKEPS [THYN1] . 47.3

Please report the recorded melting temperature for MGVEGCTKCIKYLLFVFNFVFWLAGGVILGVALWLRHDPQTTNLLYLELGDKPAPNTFYVGIYILIAVGAVMMFVGFLGCYGAIQESQCLLGTFFTCLVILFACEVAAGIWGFVNKDQIAKDVKQFYDQALQQAVVDDDANNAKAVVKTFHETLDCCGSSTLTALTTSVLKNNLCPSGSNIISNLFKEDCHQKIDDLFSGKLYLIGIAAIVVAVIMIFEMILSMVLCCGIRNSSVY [CD81] . 56.1
